Measured [Aurora A IC50 (nM)]/[PLK4 IC50 (nM)], listed per entry for reference.
# tested_on: human recombinant Aurora A (Homo sapiens)
# Construct: purchased ThermoFisher PR5935A
# Sequence (O14965 whole entry): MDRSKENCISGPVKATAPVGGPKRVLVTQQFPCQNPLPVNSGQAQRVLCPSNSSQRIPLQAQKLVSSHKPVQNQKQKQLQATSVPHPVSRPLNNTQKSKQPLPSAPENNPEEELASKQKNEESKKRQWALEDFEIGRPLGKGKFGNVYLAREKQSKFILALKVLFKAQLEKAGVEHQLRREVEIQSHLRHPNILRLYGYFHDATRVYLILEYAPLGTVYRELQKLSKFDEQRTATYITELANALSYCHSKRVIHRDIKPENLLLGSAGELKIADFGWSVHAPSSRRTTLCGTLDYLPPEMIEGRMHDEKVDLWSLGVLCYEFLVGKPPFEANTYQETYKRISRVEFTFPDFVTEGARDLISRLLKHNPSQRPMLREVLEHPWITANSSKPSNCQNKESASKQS
# experiment_summary: Aurora A Kinase Biochemical Assay (ADP-Glo)
# measurement_context: selectivity ratio; Aurora A 2.5 nM, 20 μM ATP
# output: bare number, no unit

Record excerpt, results attached:
### Prompt Name the reported [Aurora A IC50 (nM)]/[PLK4 IC50 (nM)] value associated with the molecule `COc1ccc2c(c1)[C@]1(C[C@H]1c1ccc3c(Nc4nc(-c5cnn(C)c5)ncc4OC)n[nH]c3c1)C(=O)N2`
### Response 743.0555

### Prompt Given the entry `COc1ccc2c(c1)[C@]1(C[C@H]1c1ccc3c(Nc4nc(-c5cncnc5)ncc4OC)n[nH]c3c1)C(=O)N2` , report its measured [Aurora A IC50 (nM)]/[PLK4 IC50 (nM)].
### Response 934.8277

### Prompt Record request: [Aurora A IC50 (nM)]/[PLK4 IC50 (nM)] value, item `CCOc1cc2c(ccc[n+]2[O-])cc1Nc1n[nH]c2cc([C@@H]3C[C@@]34C(=O)Nc3ccc(OC)cc34)ccc12`
### Response 630

Read the next record carefully.
### Prompt Name the reported [Aurora A IC50 (nM)]/[PLK4 IC50 (nM)] value associated with the molecule `COc1ccc2c(c1)[C@]1(C[C@H]1c1ccc3c(Nc4nc(-c5cnco5)ncc4OC)n[nH]c3c1)C(=O)N2`
### Response 288.4

Taken from patent US20260108527A1.
